Test system: human Jurkat T cells deficient in FADD
Assay: Cell protection effect under apoptosis-inducing condition (TNF-α)
Assay type: cell-based
Details: 40 ng of TNF-α, 50 hours, CellTiter-Glo, read-out: I2.I Cell EC50
Counter-ions that a name gives are not always drawn.
parameter: pEC50
As a rule, pEC50 stands for the negative log10 of the concentration, concentration in M.

Report pEC50 for COc1ccc(C2CC=NN2C(=O)Nc2cccc(C#Cc3cnc4cccnn34)c2)cc1 (centres unmarked) [Example 27, 2,2,2-trifluoroacetate]
7.26

Report pEC50 for O=C(Nc1cccc(C#Cc2cnc3cccnn23)c1)N1N=CC[C@@H]1c1cccc(F)c1 [Example 30, 2,2,2-trifluoroacetate]
6.49

Report pEC50 for O=C(Nc1cccc(C#Cc2cnc3cccnn23)c1)N1N=CC[C@@H]1c1ccccc1 [Example 21, hydrochloride]
6.23

Report pEC50 for Cc1ccc(NC(=O)N2N=CC[C@H]2c2cccc(F)c2)cc1C#Cc1cnc2cccnn12 [Example 9, 2,2,2-trifluoroacetate]
9.39

Report pEC50 for Cc1ccc(NC(=O)N2N=CCC2c2cccnc2)cc1C#Cc1cnc2cccnn12 (centres unmarked) [Example 16, 2,2,2-trifluoroacetate]
10.30

Report pEC50 for Cc1ccc(NC(=O)N2N=CC[C@H]2c2cc(F)cc(F)c2)cc1C#Cc1cnc2cccnn12 [Example 5, 2,2,2-trifluoroacetate]
9.40

Report pEC50 for Cc1ccc(NC(=O)N2N=CC[C@@H]2c2ccccc2)cc1C#Cc1cnc2cccnn12 [Example 3, 2,2,2-trifluoroacetate]
6.50

Report pEC50 for O=C(Nc1cccc(C#Cc2cnc3cccnn23)c1)N1N=CCC1c1ccc2ccccc2c1 (centres unmarked)
7.91

Report pEC50 for Cc1ccc(NC(=O)N2N=CCC2c2ccccc2)cc1C#Cc1cnc2cccnn12 (centres unmarked) [Example 1, 2,2,2-trifluoroacetate]
9.77

Report pEC50 for Cc1ccc(NC(=O)N2N=CCC2c2cc(F)cc(F)c2)cc1C#Cc1cnc2cccnn12 (centres unmarked) [Example 4, 2,2,2-trifluoroacetate]
8.77

Report pEC50 for Cc1ccc(NC(=O)N2N=CC[C@@H]2c2ccc(F)cc2)cc1C#Cc1cnc2cccnn12 [Example 13, 2,2,2-trifluoroacetate]
6.49

Report pEC50 for O=C(Nc1cccc(C#Cc2cnc3cccnn23)c1)N1N=CC[C@@H]1c1cc(F)cc(F)c1 [Example 25, 2,2,2-trifluoroacetate]
6.44

Report pEC50 for O=C(Nc1ccnc(C#Cc2cnc3cccnn23)c1)N1N=CC[C@@H]1c1ccccc1 [Example 50, 2,2,2-trifluoroacetate]
6.71

Report pEC50 for Cc1cc(Nc2cccn3c(C#Cc4cccc(NC(=O)N5N=CCC5c5ccccc5)c4)cnc23)n[nH]1 (centres unmarked) [Example 66, 2,2,2-trifluoroacetate]
9.66

###

Molecular target: human GST-RIPK1 (Homo sapiens, UniProt Q13546)
Sequence (Q13546 1-375 limits assumed): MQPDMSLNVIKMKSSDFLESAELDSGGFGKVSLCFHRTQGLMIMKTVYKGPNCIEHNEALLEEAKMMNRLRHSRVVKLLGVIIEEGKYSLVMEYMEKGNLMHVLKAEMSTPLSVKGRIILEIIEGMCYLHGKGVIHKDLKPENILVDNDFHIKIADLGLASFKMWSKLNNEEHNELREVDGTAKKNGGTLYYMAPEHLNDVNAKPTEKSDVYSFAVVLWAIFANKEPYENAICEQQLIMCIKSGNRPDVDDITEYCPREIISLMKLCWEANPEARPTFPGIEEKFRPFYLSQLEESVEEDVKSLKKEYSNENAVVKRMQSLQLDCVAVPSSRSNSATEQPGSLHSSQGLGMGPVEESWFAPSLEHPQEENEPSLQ
Structures can show the parent of a compound that is named as a salt.
For each of the compounds below, state its IC50.
Express it in µM; write the number only.

Report IC50 for O=C(c1cccc(C#Cc2cnc3cccnn23)c1)N1N=CCC1c1ccccc1 (stereo not shown) [Example 53, 2,2,2-trifluoroacetate]
0.731

Report IC50 for Cc1ccc(NC(=O)N2N=CC[C@H]2c2ccc(F)cc2)cc1C#Cc1cnc2cccnn12 [Example 12, 2,2,2-trifluoroacetate]
0.0191

Report IC50 for O=C(Nc1cccc(C#Cc2cnc3cccnn23)c1)N1N=CCC1c1ccncc1 (stereo not shown) [Example 38, hydrochloride]
0.0011

Report IC50 for O=C(Nc1cccc(C#Cc2cnn3cccnc23)c1)N1N=CCC1c1ccccc1 (stereo not shown)
0.0305
